Data origin, for the record: ChEMBL document CHEMBL1131984

Test system: HL-60
Procedure Details: In vitro cytotoxic activity against HL-60 human leukemia cell line by MTT assay (microculture terazolium colorimetric)
Format: functional, cell-based
pIC50: −log10 of the molar value.

Compound	pIC50
Cc1ccc2c(c1CCC(Br)C(C)(C)O)C(=O)C(=O)C(C(C)C)=C2 (stereo not drawn)	5.34
C=C(C)[C@H](CCc1c(C)ccc2c1C(=O)C(=O)C(C(C)C)=C2)OO	5.43
Cc1ccc2cc(C(C)C)c(=O)oc(=O)c2c1CCC(=O)C(C)C	5.84

###

Test system: HL-60
Procedure Details: In vitro cytotoxic activity against HL-60 human leukemia cell line by MTT assay (microculture terazolium colorimetric)
Assay type: functional, cell-based
Entries and their IC50

Compound	IC50
Cc1ccc2c(c1CCC=O)C(=O)C(=O)C(C(C)C)=C2	2.39 µM
CC(=O)OC(CCc1c(C)ccc2c1C(=O)C(=O)C(C(C)C)=C2)C(C)(C)O (stereo unspecified)	5.04 µM
Cc1ccc2c(c1CCC(=O)C(C)C)C(=O)C(=O)C(C(C)C)=C2	0.27 µM
Cc1ccc2c(c1CCC(=O)O)C(=O)C(=O)C(C(C)C)=C2	2.84 µM
Cc1ccc2c(c1CCC1OC1(C)C)C(=O)C(=O)C(C(C)C)=C2 (stereo unspecified)	4.48 µM
Cc1ccc2c(c1CCC(O)C(C)(C)O)C(=O)C(=O)C(C(C)C)=C2 (stereo unspecified)	3.57 µM
